Values were extracted from patent US6949575B2.

// values below are reported IC50
Target: Aβ (1-42) (Homo sapiens, UniProt P05067)
Construct: Required Aβ (1-42) (California Peptide)
Sequence (P05067 672-713 limits assumed): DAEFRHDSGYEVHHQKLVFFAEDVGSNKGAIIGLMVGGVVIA
Assay: Batym Assay: Aβ (1-42) aggregation, Thioflavin T fluorescence
Conditions: Aβ1-42 final 100 μM, 37° C., 1 day, read-out: BAYTM IC50

- molecule: "O=C(O)c1cc([N+](=O)[O-])ccc1Nc1ccc2c(c1)CC(NCc1ccc(F)cc1)C2 (centres unmarked)"
  system_tested: "Aβ (1-42) (Homo sapiens, UniProt P05067)"
  IC50: "53.8 µM"

Field request: IC50 | item: O=C(O)c1ccccc1Nc1ccc2c(c1)CC(NCc1ccc(Cl)c(Cl)c1)C2 (centres unmarked)
> 100 µM

Please give the measured IC50 for this molecule: CCCCCN(CCCCC)C1Cc2ccc(Nc3ccc(C)cc3C(=O)O)cc2C1 (centres unmarked)
> 100 µM

Which value of IC50 has been reported for O=C(O)c1cc([N+](=O)[O-])ccc1Nc1ccc2c(c1)CC(NCc1ccc(Cl)c(Cl)c1)C2 (centres unmarked) in the records?
16 µM

Find the recorded IC50 belonging to CCCCCN(CCCCC)C1Cc2ccc(Nc3ccc(C(=O)O)cc3[N+](=O)[O-])cc2C1 (centres unmarked) and report it.
> 100 µM

Please look up its IC50: CCCCCN(CCCCC)C1Cc2ccc(Nc3ccc([N+](=O)[O-])cc3C(=O)O)cc2C1 (centres unmarked)
> 100 µM

Given the molecule COc1ccc(Nc2ccc3c(c2)CC(NCc2ccc(Cl)c(Cl)c2)C3)c(C(=O)O)c1 (centres unmarked) , what is its reported IC50?
> 100 µM

Quick one: IC50 for CCCCCNC1Cc2ccc(Nc3ccc([N+](=O)[O-])cc3C(=O)O)cc2C1 (centres unmarked) ?
> 100 µM
